test system: RSK4(Kin.Dom.1-N-terminal); construct: gene RPS6KA6; settings: concentration: 1 μM, replicates: in singlicate; n = 1;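 also: KINOMEscan kinase panel screen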
Each entry below lists one item and its recorded %Inh value.

// solved cases for %Inh follow
Compound	Tested On	Parameter	Readout Value
COc1cc(Nc2ccnc3ccc(C(F)(F)F)cc23)cc(OC)c1OC	RSK4(Kin.Dom.1-N-terminal)	%Inh	0%
COc1cc(OC)cc(-c2cc3cnc(N)nc3nc2NC(=O)NC(C)(C)C)c1	RSK4(Kin.Dom.1-N-terminal)	%Inh	0%
Nc1nccc2scc(-c3ccc4c(c3)CCN4C(=O)Cc3ccccc3)c12	RSK4(Kin.Dom.1-N-terminal)	%Inh	0%
O=C(Nc1n[nH]c2nc(-c3ccccc3)c(Cl)cc12)C1CC1	RSK4(Kin.Dom.1-N-terminal)	%Inh	42%
Cn1c(=O)c(F)c(Nc2ccc(I)cc2F)c2c(=O)n(OC[C@H](O)CO)cnc21	RSK4(Kin.Dom.1-N-terminal)	%Inh	0%
CN1C(=O)C(Nc2cc(Cl)c(O)c(Cl)c2)=C(c2ccc(Cl)cc2)C1=O	RSK4(Kin.Dom.1-N-terminal)	%Inh	0%
Cc1nc(N(C)[C@H]2CN(C(=O)CC#N)CC[C@H]2C)c2cc[nH]c2n1	RSK4(Kin.Dom.1-N-terminal)	%Inh	4%
Nc1ncnc2c1ncn2-c1cccc(F)c1	RSK4(Kin.Dom.1-N-terminal)	%Inh	21%

// fetch RSK4(Kin.Dom.1-N-terminal) %Inh for Nc1nc(-c2ccccc2F)c(-c2ccnc3ccccc23)s1
0%

Lab note: need %Inh for COc1cc2nccc(Nc3cccc(Oc4ccccc4)c3)c2cc1OC.Cl on RSK4(Kin.Dom.1-N-terminal), anyone have it?
0%

Please provide the recorded %Inh for Cc1nnc(-c2ccc3ncn(-c4ccc(S(C)=O)cc4)c3c2)o1 (stereo not shown) , tested on RSK4(Kin.Dom.1-N-terminal).
0%

----------
tested on: AMPK-alpha1; construct: gene PRKAA1; details: concentration: 1 μM, replicates: in singlicate; n = 1
Parameter: %Inh
Note: a bare number is incomplete; add the unit.

Worked examples, 3 compounds total:
Compound	%Inh
Cn1c(=O)c(F)c(Nc2ccc(I)cc2F)c2c(=O)n(OC[C@H](O)CO)cnc21	0%
O=C(NCc1cccs1)c1cc(C(=O)c2c(Cl)cccc2Cl)c[nH]1 [GW823670]	8%
COc1cc(Nc2nccc(N3CCC(NC(=O)C4COc5ccccc5O4)C3)n2)cc(OC)c1OC (stereo not shown) [GSK1379761]	11%

Could you tell me which %Inh is on file for CCS(=O)(=O)c1ccc(OC)c(Nc2ncc(-c3ccc(F)cc3)o2)c1.Cl [GW591947] ?
8%

----------
system: LYN; details: concentration: 1 μM, replicates: in singlicate; n = 1
Parameter: %Inh (%)
The answer is to be given in %; state only the numeric part.

Reference set (4 entries):
Molecule	Readout Unit	%Inh
Fc1cccc(CSc2nnc(-c3ccc4c(c3)CCO4)o2)c1	%	19
Cc1nnc(-c2ccc3ncn(-c4ccc(S(C)=O)cc4)c3c2)o1 (centres unmarked)	%	8
COc1cc2nccc(Nc3ccc(OCc4ccc(NC(C)=O)cc4)cc3)c2cc1OC.Cl	%	23
Nc1n[nH]c2nnc(-c3ccccc3)c(-c3ccccc3)c12	%	100

Now turn to the next molecule.
Give its %Inh value. Item: Cc1cccc(-c2cc(-c3c[nH]nc3-c3ccccn3)ccn2)c1
0

----------
tested on: MKNK1; settings: concentration: 1 μM, replicates: in singlicate; n = 1
Parameter: %Inh (%)
A number alone suffices; assume %.

Solved entries:
CC(C)(C)c1ccc(C(=O)Nc2cn3cc(-c4ccccc4)ccc3n2)cc1 0
COc1cccc(C2=C(N(C)c3ccccc3)C(=O)NC2=O)c1 3
O=c1cc(N2CCOCC2)nc2n(Cc3ccc(F)c(Cl)c3)ccn12 5
Nc1nccc2scc(-c3ccc4c(c3)CCN4C(=O)Cc3ccccc3)c12 3
Cc1cccc(-c2cc(-c3c[nH]nc3-c3ccccn3)ccn2)c1 0
Cc1cc(Nc2nc(-c3cccc(C)n3)nc3ccccc23)ccn1 1
Cc1cccc(-c2nc(Nc3ccc4c(cnn4C)c3)c3ccccc3n2)n1 100
CCC(=O)c1c(-c2ccccc2)c2cc(Cl)ccc2c(=O)n1Cc1cc(C(=O)NC2CC2)n(C)n1 0

Could you tell me which %Inh is on file for Cc1c(Cn2c(C)nn3c(=O)cc(N4CCO[C@H](C)C4)nc23)cccc1C(F)(F)F ?
3

Data request, read-out %Inh, for O=C(Nc1n[nH]c2nc(-c3ccccc3)c(Cl)cc12)C1CC1
17

----------
# reported %Inh; entries follow
test system: CAMK1D; settings: concentration: 1 μM, replicates: in singlicate; n = 1
Your answer should be a plain number; it is taken to be in %.

Answered examples (5):
Compound	%Inh (%)
Nc1n[nH]c2ncc(-c3ccccc3)cc12	40
CCS(=O)(=O)c1ccc(OC)c(Nc2ncc(-c3ccc(F)cc3)o2)c1.Cl	3
COC(=O)c1c(-c2ccccc2)c2cc(Br)ccc2c(=O)n1Cc1ccc(S(C)(=O)=O)cc1	26
CCc1ccc(-c2ccc3c(c2)-c2nn(C)cc2S(=O)(=O)N3C)cc1	5
Cc1nnc(-c2ccc3ncn(-c4ccc(S(C)=O)cc4)c3c2)o1 (stereo not shown)	0

Would you kindly share the measured %Inh for O=c1cc(N2CCOCC2)nc2n(Cc3ccc(F)c(Cl)c3)ccn12 ?
9

Query: %Inh; subject: Nc1nc(-c2ccccc2F)c(-c2ccnc3ccccc23)s1
0

Query: %Inh; subject: Nc1ncnc2c1ncn2-c1ccc(Cl)cc1
4

# query: %Inh of entry COc1cc2nccc(Nc3cccc(Oc4ccccc4)c3)c2cc1OC.Cl
0

Find the recorded %Inh belonging to CN(C)c1cc(-c2ccc3c(N)n[nH]c3c2)nc(N)n1 and report it.
9

----------
Readings of %Inh for the listed compounds
system: PAK3; settings: concentration: 1 μM, replicates: in singlicate; n = 1
Quick reminder: number only, in %, skip the unit.

Known %Inh results, listed for orientation:
Compound	%Inh [%]
COc1cc(Nc2nccc(N3CCC(NC(=O)C(C)c4ccc(Cl)cc4)C3)n2)cc(OC)c1OC (stereo not drawn)	22
Fc1cccc(CSc2nnc(-c3ccc4c(c3)CCO4)o2)c1	19
Cc1nnc(-c2ccc(C)c(-c3ccc(C(=O)O)cc3)c2)o1	0
Cc1c(Cn2c(C)nn3c(=O)cc(N4CCO[C@H](C)C4)nc23)cccc1C(F)(F)F	7
CN(C)c1cc(-c2ccc3c(N)n[nH]c3c2)nc(N)n1	0

Fill blank: measured %Inh of the compound O=C(NCCNc1ccnc(Nc2ccc(F)cc2)n1)Nc1ccc2c(c1)OCO2 is ____.
0

Look up %Inh for this compound: COc1cc2ncn(-c3cc(OCc4ccc(S(C)(=O)=O)cc4)c(C(N)=O)s3)c2cc1OC
0

Could you tell me which %Inh is on file for Cc1ccccc1COc1cc(-n2cnc3cc(Cl)ccc32)sc1C(N)=O ?
0

Quick one: %Inh for CCC(=O)c1c(-c2ccccc2)c2cc(Cl)ccc2c(=O)n1Cc1ccc(C(=O)O)cc1 ?
0

----------
tested on: PCTK3; construct: gene CDK18; conditions: concentration: 1 μM, replicates: in singlicate; n = 1
Parameter: %Inh (%)
Enter your answer as a number in %; do not include the unit.

Observe how each entry below is paired with its result.
OCCCNc1nccc(-c2c(-c3cccc(C(F)(F)F)c3)nn3cc(C(F)(F)F)ccc23)n1 19
COc1cc2ncn(-c3cc(OCc4ccncc4)c(C(N)=O)s3)c2cc1OC 18
Cl.NS(=O)(=O)c1cccc(Nc2cc(-c3ccc(F)cc3)n[nH]2)c1 5
CCC(=O)c1c(-c2ccccc2)c2cc(Cl)ccc2c(=O)n1Cc1cc(S(C)(=O)=O)n(CC(N)=O)n1 13
CCC(=O)c1c(-c2ccccc2)c2cc(Cl)ccc2c(=O)n1Cc1cc(S(C)(=O)=O)n(CC(F)F)n1 0

Fill in the blank: the reported %Inh of Cc1ccc(Oc2ccc(Nc3ncnc4cc[nH]c34)cc2C)cn1 is ____.
2

Could you tell me which %Inh is on file for CCc1ccc(-c2ccc3c(c2)-c2nn(C)cc2S(=O)(=O)N3C)cc1 ?
0

Data request, read-out %Inh, for COC(=O)c1c(-c2ccccc2)c2cc(Br)ccc2c(=O)n1Cc1ccc(NC(=O)CCC(=O)O)cc1
0

----------
test system: PIK3CG; conditions: concentration: 1 μM, replicates: in singlicate; n = 1
Parameter: %Inh (%)
I only need the number, in %, no unit after it.

Study these solved cases before continuing.
O=C(NCc1cccs1)c1cc(C(=O)c2c(Cl)cccc2Cl)c[nH]1 0
CCCNC(=O)Nc1ccc(Oc2ncnc3ccn(C)c23)cc1 12

Which %Inh value belongs to C[C@@H]1CC[C@H](C(=O)NC2CCCCC2)CN1c1cc(-c2ccc3c(N)n[nH]c3c2)nc(N)n1 ?
0

Reported %Inh, compound O=C1NC(=O)C(c2ccccc2)=C1Nc1cccc(O)c1 : ____
5

Entry Cc1cccc(-c2nc(Nc3ccc4c(cnn4C)c3)c3ccccc3n2)n1 : reported %Inh = ?
0

Fill in: %Inh of COc1cc2ncn(-c3cc(OCc4ccncc4Br)c(C(N)=O)s3)c2cc1OC is ___
55
